Every entry's value here was drawn from patent US20110059948A1.

Test system: clinical isolate MDR (BTB 08-072)
Assay: microbe, parasite or virus in culture
Assay type: cell-based, Mycobacterium tuberculosis
Settings: agar dilution, Middlebrook 7H10
Quick reference: MIC against MDR-TB (BTB 08-072), strain resistant to all front line drugs of the listed items.
measure.name: MIC against MDR-TB (BTB 08-072), strain resistant to all front line drugs

> print(dat)
                                   compound                experimental.system  assay.result
1  CC(O)c1cc(F)ccc1Oc1nc2ccc(NC(=O)Nc3cccc([N+](=O)[O-])c3)cc2cc1Cc1ccccc1 (stereo not shown)  clinical isolate MDR (BTB 08-072)   >6.25 µg/mL
2  ON=C1c2ccccc2-c2c1c(N1CCN(c3ccccn3)CC1)nc1ccc(Br)cc21  clinical isolate MDR (BTB 08-072)   >6.25 µg/mL
3  COc1cccc(NC(=O)Nc2ccc3nc(Oc4ccc(F)cc4C(C)O)c(Cc4ccccc4)cc3c2)c1 (stereo not shown)  clinical isolate MDR (BTB 08-072)    >4.0 µg/mL
4  CC(c1cc(F)ccc1Oc1nc2ccc(-n3cc(-c4ccccc4)nn3)cc2cc1Cc1ccccc1)n1ccnc1 (stereo not shown)  clinical isolate MDR (BTB 08-072)   >6.25 µg/mL
